Hello, the source for this data is patent US6323202A, in case you need it.

target: HSV-1 helicase-primase (UL5(K103A) helicase-primase holoenzyme) (Human herpesvirus 1, UniProt P10189+P10236, K103A); experiment: HSV-1 Helicase-primase DNA Primase Assay (incorporation of [3H]GTP into primers)
Sequence (P10189 whole entry, looked up, stated change not applied): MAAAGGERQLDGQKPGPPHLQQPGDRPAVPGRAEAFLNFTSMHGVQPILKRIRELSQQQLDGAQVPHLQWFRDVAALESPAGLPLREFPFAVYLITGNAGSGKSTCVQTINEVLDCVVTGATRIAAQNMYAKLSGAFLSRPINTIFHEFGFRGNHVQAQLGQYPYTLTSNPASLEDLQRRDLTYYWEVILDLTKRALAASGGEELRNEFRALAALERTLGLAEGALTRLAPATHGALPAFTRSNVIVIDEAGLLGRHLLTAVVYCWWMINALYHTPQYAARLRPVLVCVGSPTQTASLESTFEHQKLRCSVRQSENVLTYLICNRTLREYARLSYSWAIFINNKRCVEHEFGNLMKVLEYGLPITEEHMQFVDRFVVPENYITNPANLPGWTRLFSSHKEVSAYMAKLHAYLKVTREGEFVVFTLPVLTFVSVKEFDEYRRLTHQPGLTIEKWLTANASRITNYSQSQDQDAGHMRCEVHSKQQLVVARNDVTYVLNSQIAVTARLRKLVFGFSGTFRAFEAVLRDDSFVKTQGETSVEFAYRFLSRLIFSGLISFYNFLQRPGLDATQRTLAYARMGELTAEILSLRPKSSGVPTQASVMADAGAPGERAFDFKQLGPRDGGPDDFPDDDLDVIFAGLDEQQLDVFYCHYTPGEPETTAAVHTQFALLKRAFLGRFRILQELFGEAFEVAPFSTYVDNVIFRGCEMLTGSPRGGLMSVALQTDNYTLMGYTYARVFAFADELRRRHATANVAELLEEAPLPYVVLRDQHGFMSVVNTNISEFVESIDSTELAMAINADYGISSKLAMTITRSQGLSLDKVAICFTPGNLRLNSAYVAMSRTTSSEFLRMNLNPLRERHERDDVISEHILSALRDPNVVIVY
Sequence (P10192 whole entry, stated change not applied, further chain): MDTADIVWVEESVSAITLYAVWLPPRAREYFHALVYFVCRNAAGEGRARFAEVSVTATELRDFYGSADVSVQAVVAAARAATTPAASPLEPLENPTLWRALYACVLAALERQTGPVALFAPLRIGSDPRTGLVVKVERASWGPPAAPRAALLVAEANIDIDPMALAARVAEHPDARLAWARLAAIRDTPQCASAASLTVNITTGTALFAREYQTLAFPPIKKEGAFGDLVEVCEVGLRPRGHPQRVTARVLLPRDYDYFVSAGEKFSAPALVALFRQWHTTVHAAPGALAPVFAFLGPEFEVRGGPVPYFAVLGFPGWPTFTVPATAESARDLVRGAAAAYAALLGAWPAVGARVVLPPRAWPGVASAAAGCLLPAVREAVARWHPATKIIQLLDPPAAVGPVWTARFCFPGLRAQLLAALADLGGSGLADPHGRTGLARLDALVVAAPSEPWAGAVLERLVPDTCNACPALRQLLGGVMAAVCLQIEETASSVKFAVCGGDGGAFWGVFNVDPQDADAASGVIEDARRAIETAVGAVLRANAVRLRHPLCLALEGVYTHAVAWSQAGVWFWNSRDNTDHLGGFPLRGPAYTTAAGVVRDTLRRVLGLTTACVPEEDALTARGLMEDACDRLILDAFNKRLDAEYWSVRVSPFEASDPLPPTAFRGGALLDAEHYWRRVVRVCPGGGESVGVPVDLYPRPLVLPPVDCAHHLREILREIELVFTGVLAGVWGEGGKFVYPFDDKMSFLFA
Sequence (P10236 whole entry, stated change not applied): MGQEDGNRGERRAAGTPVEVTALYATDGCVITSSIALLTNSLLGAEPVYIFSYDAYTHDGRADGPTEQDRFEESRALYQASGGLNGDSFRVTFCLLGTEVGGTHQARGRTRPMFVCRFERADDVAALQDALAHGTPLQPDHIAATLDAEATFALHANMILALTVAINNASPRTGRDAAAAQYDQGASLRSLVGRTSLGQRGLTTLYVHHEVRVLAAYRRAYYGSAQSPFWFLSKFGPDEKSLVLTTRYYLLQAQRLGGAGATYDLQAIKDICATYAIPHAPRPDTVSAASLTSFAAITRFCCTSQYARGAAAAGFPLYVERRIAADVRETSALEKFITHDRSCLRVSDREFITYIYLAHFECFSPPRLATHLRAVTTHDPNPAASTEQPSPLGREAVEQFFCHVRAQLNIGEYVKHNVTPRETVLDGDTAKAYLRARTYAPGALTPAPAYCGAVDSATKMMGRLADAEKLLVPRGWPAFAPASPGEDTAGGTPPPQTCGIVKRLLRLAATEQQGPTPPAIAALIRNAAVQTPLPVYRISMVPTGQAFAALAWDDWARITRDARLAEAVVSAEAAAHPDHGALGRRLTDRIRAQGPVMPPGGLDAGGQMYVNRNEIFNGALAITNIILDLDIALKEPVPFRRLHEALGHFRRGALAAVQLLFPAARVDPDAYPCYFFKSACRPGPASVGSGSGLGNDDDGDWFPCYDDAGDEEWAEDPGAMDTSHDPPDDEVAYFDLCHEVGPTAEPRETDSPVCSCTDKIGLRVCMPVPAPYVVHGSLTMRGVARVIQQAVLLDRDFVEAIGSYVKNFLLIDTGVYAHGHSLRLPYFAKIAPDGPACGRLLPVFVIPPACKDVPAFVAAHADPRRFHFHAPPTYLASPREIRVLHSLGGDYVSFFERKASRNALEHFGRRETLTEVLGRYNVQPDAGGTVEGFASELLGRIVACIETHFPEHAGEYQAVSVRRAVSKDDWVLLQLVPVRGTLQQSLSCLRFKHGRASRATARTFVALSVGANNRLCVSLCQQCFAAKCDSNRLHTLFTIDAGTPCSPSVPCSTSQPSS
Measured IC50 accompanies every entry in the list below.

O=C(OCc1ccccn1)c1cccc(NC(=O)c2ccc(Cl)cc2O)c1 | < 1 µM
Nc1ccc(C(=O)Nc2cccc(C(=O)NCc3ccccc3)c2)c(O)c1 | 1 to 100 µM
O=C(Nc1cccc(C(=O)C2CCCCC2)c1)c1ccc(Cl)cc1O | 1 to 100 µM
O=C(Cc1ccccc1)c1cccc(NC(=O)c2ccc(Cl)cc2O)c1 | 1 to 100 µM
O=C(NCc1ccncc1)c1cccc(NC(=O)c2ccc(Cl)cc2O)c1 | 1 to 100 µM
O=C(NCc1ccccn1)c1cccc(NC(=O)c2ccc(Cl)cc2O)c1 | < 1 µM

In plain terms, `O=C(Nc1cccc(C(=O)N2CCCCC2)c1)c1ccc(Cl)cc1O` has a documented IC50 of > 100 µM

Measured IC50, `O=C(NCCc1ccccn1)c1cccc(NC(=O)c2ccc(Cl)cc2O)c1` : 1 to 100 µM

Form field IC50, entry `[N-]=[N+]=Nc1ccc(C(=O)Nc2cccc(C(=O)NCc3ccccc3)c2)c(O)c1` : < 1 µM

For `O=C(NCc1ccccc1)c1cccc(NC(=O)c2ccc(Cl)cc2O)c1` the compound record lists IC50 as < 1 µM

Given item CCCCC(C(=O)OCC)C(=O)c1cccc(NC(=O)c2ccc(Cl)cc2O)c1 (stereo not shown) , the value recorded as its IC50 is 1 to 100 µM

Sure, the documented IC50 for `O=C(OCc1ccccc1)c1cccc(NC(=O)c2ccc(Cl)cc2O)c1` is < 1 µM

* * *

Catalogue of IC50 readings, one per entry.
biological target: HSV-1 helicase-primase (UL5(K103A) helicase-primase holoenzyme) (Human herpesvirus 1, UniProt P10189+P10236, K103A); test: HSV-1 Helicase-primase DNA Primase Assay (incorporation of [3H]GTP into primers)

Worked examples follow.
CC(=O)c1cccc(NC(=O)c2ccc(Cl)cc2O)c1 | 1 to 100 µM
CCCCN(C)C(=O)c1cccc(NC(=O)c2ccc(Cl)cc2O)c1 | > 100 µM
Nc1cc(Cl)ccc1C(=O)Nc1cccc(C(=O)NCc2ccccc2)c1 | > 100 µM
Cc1ccc(C(=O)Nc2cccc(C(=O)NCc3ccccc3)c2)c(O)c1 | < 1 µM
Nc1ccccc1C(=O)Nc1cccc(C(=O)NCc2ccccc2)c1 | > 100 µM
CCCCNC(=O)c1cccc(NC(=O)c2ccc(Cl)cc2O)c1 | 1 to 100 µM
CCCC(=O)c1cccc(NC(=O)c2ccc(Cl)cc2O)c1 | 1 to 100 µM

Could you now look at the following molecule, please?
# IC50 (molecule: `O=C(NCC1CCCCC1)c1cccc(NC(=O)c2ccc(Cl)cc2O)c1` ) is < 1 µM

* * *

molecular target: HSV-1 helicase-primase (UL5(K103A) helicase-primase holoenzyme) (Human herpesvirus 1, UniProt P10189+P10236, K103A); test: HSV-1 Helicase-primase DNA Primase Assay (incorporation of [3H]GTP into primers)
pIC50: −log10 of the molar value.
metric name: pIC50

O=C(CCc1ccccc1)c1cccc(NC(=O)c2ccc(Cl)cc2O)c1 | 4.00 to 6.00
[N-]=[N+]=Nc1cc(O)c(C(=O)Nc2cccc(C(=O)NCc3ccccc3)c2)cc1I | > 6.00
CCCCCC(=O)c1cccc(NC(=O)c2cccc(Cl)c2O)c1 | 4.00 to 6.00

For this compound ( `O=C(NC1CCCCC1)c1cccc(NC(=O)c2ccc(Cl)cc2O)c1` ), measured pIC50 is 4.00 to 6.00

pIC50 reading for `CN(CCc1ccccn1)C(=O)c1cccc(NC(=O)c2ccc(Cl)cc2O)c1` : < 4.00

// recorded pIC50 for `COc1ccc(C(=O)Nc2cccc(C(=O)NCc3ccccc3)c2)c(O)c1` : > 6.00

# pIC50 of `CCOC(=O)CC(=O)c1cccc(NC(=O)c2ccc(Cl)cc2O)c1` = 4.00 to 6.00
